Every entry's value here was drawn from paper PMC7619385.

ΔTm Run 1 overview
Biological target: LmxCLK1 (Leishmania mexicana)
Sequence (E9AMP2 1-422): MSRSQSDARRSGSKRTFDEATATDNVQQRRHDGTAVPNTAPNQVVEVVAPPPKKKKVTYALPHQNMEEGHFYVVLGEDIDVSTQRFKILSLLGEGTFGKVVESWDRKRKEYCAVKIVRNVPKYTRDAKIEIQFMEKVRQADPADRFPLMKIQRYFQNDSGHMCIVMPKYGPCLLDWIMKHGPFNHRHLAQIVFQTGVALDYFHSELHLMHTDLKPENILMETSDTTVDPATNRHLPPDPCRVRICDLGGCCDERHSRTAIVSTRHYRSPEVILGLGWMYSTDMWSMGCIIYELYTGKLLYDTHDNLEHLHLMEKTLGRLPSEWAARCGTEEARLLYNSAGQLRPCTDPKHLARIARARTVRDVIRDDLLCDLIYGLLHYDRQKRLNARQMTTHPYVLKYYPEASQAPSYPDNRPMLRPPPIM
Assay: biochemical
Format: binding
All answers are understood in °C, so give the number only.

CC(=O)Nc1nc(C)c(-c2ccc(Cl)c(S(=O)(=O)NCCO)c2)s1 [PIK-93]
0
COc1ccc(-c2cc3c(C)nc(N)nc3n([C@H]3CC[C@H](OCCO)CC3)c2=O)cn1 [PF-04691502]
0.3
CN(C)CCSSCCNC(=O)C1CCN(C(=O)CSc2ccc(Cl)cc2)CC1 [6H05]
0.1
COc1ccc(F)c(F)c1C(=O)c1cnc(NC2CCN(S(C)(=O)=O)CC2)nc1N [R547]
0
COc1ccc2cc(-c3nc(-c4ccc([S+](C)[O-])cc4)[nH]c3-c3ccncc3)ccc2c1 (stereo not shown) [Tie2 kinase inhibitor]
0.1

Let us examine a further case.
Ask | I am curious: what ΔTm Run 1 value has been reported for Nc1nc(N)c2nc(-c3cccc(O)c3)c(-c3cccc(O)c3)nc2n1 [TG100-115] ?
Reply | 1.7
